assay: chemical genetic growth profiling, strain panel (AID 1159580);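 further: tested at 20 µM; growth read once vehicle control cultures reached saturation at 30 °C; 1 = growth at the plate median or of vehicle wells; lower values mean less growth of the strain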; conditions: S. cerevisiae deletion strains, growth OD, locus YDR001C, strain nth1, hits give low values
The campaign covered roughly 5,500 compounds. About 2,000 (36%) were called active. Roughly 18% stayed inconclusive and do not appear here. This is one part of the list.
Provide the recorded normalized growth for the entries that follow.
Reply with the value as a number alone.

Which normalized growth is reported for this compound? `CCOc1ccc(Cc2nccc3cc(OCC)c(OCC)cc23)cc1OCC`
0.977

Entry CCCC(=O)Nc1ncnc2c1ncn2C1O[C@@H]2COP(=O)(O)O[C@H]2[C@H]1OC(=O)CCC (some centres not stated) : reported normalized growth = ?
0.986

Data request, read-out normalized growth, for `CN1CCN(C(c2ccccc2)c2ccccc2)CC1`
1.02

Can you look up the measured normalized growth of `O=c1[nH]cnc2nc[nH]c12` for me?
1.01

Fill in: normalized growth of `COc1c(O)cc(O)cc1O` is ___
1

Fill in: normalized growth of `Cn1c([N+](=O)[O-])cnc1COC(N)=O` is ___
1

Using the record for `COc1ccc2c(=O)c(CC(=O)O)coc2c1` , report its normalized growth.
0.995

Report normalized growth for `C[C@H]1C(=O)O[C@@H]2CCN3CC=C(COC(=O)[C@](C)(O)[C@]1(C)O)[C@H]23` please.
0.99

Which value of normalized growth has been reported for CC1=C(C(=O)O)N2C(=O)[C@@H](NC(=O)[C@H](N)C3=CCC=CC3)C2SC1 (some centres not stated) in the records?
1.01

So what's the measured normalized growth for this one? `CCCCC(=O)N(Cc1ccc(-c2ccccc2-c2nn[nH]n2)cc1)[C@H](C(=O)O)C(C)C`
0.974

# normalized growth lookup, item CCOC(=O)C1=C(C)NC(C)=C(C(=O)OC)C1c1cccc([N+](=O)[O-])c1 (configuration not stated)
1.01

Look at this compound and give its reported normalized growth. `COc1cc(OC)c2c(=O)c(-c3ccc4c(c3)OCO4)coc2c1`
0.98

Consider the compound shown here: CC(=O)OC1CCC23C(=O)OC45CCC(C6=CC(=O)OC6)C4(C)CCC2C5CCC3(O)C1 (configuration not stated) What is its recorded normalized growth?
0.991

For the compound `CCCCC/C=C\C/C=C\C/C=C\C/C=C\CCCC(=O)O` , what normalized growth is on record?
0.972

What value of normalized growth has been recorded for this entry: OC[C@@H](O)C(O[C@@H]1O[C@H](CO)[C@H](O)[C@H](O)[C@H]1O)[C@H](O)[C@@H](O)CO (some centres not stated)
0.99

I'd like to know its normalized growth. The compound in question is `CCNc1nc(Cl)nc(NC(C)C)n1`
0.992

Consider the compound `c1coc(CNc2ncnc3nc[nH]c23)c1` and give its measured normalized growth.
0.993

Query (compound): `COc1ccc2c(=O)c(-c3cc4c(cc3OC)OCO4)coc2c1` ; field requested: normalized growth
1.01

Item under review: `COc1ccc2c(c1)[nH]c1c(C)nccc12` . Reported normalized growth?
0.991

// returns reported normalized growth for input `CC1(C)S[C@@H]2[C@H](NC(=O)COc3ccccc3)C(=O)N2[C@H]1C(=O)O`
0.99

Suppose we examine the compound `O=C(/C=C/C(=O)Oc1ccccc1C(=O)O)Oc1ccccc1C(=O)O` ; what normalized growth value has been reported?
0.972

Returns the measured normalized growth for the input compound. Input: `O=C(O)c1cccc(O)c1O`
1.02

Any idea what its normalized growth is? The compound is `O=C(O)c1cc2cc(Cl)ccc2[nH]1`
0.981

Entry under review: O=C1OC(=O)C2C3CCC(O3)C12 (configuration not stated) . Reported normalized growth?
1

For the compound `COC(=O)C1=CO[C@@H](O[C@@H]2O[C@H](CO)[C@@H](O)[C@H](O)[C@H]2O)[C@@H]2[C@@H](C)[C@@H](O)C[C@H]12` , what normalized growth is on record?
1

Fill in the blank: the reported normalized growth of `O=c1ccc2ccc(O)c(O)c2o1` is ____.
1.02

Record request: normalized growth value, item `c1ccc2c(c1)[nH]c1cnccc12`
1
